- Test System: Calcium sensing receptor (hCaSR) (Homo sapiens, UniProt P41180)
- Sequence (P41180 20-1078): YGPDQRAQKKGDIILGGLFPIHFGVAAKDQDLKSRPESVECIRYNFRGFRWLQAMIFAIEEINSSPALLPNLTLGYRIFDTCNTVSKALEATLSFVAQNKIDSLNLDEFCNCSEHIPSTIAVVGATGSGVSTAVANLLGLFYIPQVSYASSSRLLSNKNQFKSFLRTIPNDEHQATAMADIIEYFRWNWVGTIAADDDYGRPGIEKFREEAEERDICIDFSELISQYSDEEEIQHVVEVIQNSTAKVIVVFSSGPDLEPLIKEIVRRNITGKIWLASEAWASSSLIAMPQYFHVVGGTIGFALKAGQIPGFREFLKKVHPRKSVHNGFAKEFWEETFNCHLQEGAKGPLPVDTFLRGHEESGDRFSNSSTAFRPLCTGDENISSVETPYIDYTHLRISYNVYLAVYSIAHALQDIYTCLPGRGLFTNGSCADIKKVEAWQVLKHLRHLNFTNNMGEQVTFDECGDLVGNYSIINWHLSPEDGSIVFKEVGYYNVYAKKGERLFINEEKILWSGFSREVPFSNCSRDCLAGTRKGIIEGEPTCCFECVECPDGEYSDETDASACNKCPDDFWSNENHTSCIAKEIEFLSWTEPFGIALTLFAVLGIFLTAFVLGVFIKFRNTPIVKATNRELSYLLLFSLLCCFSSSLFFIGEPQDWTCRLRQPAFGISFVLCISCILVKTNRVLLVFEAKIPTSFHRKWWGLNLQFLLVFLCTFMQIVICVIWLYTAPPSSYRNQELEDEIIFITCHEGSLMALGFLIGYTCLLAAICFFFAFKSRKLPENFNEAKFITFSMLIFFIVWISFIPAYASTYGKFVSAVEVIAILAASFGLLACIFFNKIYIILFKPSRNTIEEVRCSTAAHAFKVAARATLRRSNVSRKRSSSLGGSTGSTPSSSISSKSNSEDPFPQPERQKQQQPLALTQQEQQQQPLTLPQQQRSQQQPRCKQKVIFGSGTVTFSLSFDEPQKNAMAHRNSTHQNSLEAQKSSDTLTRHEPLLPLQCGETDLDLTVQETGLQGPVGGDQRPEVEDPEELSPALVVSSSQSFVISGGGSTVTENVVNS
- Run Description: In-vitro assay of calcimimetics through modulation of calcium sensing receptor (intracellular calcium increase, FLIPR)
- Condition Parameters: stably transfected HEK293 cells expressing hCaSR; Fluo4NW dye; 0.3 mM CaCl2; 8-point assay; read-out: EC50 in range
pEC50: −log10 of the molar value. Counter-ions that a name gives are not always drawn.
Reported pEC50 values for the following molecules.

Reference set, count: 5
{"columns": ["Molecule", "pEC50"],
 "data": [
  ["COc1cccc([C@@H](C)NC(C)c2cc(-c3cccc(CCC(=O)O)c3F)c3ccccc3c2)c1 (stereo partly shown) [Example 129, hydrochloride]", "> 7.70"],
  ["COc1cccc([C@@H](C)NC(C)c2cc(-c3ccc(C)c(C(=O)O)c3)c3ccccc3c2)c1 (single isomer, unassigned) [Example 114b, hydrochloride]", "7.30 to 7.70"],
  ["COCCOc1cccc([C@@H](C)NCc2cc(-c3ccc(F)c(C(=O)O)c3)c3ccccc3c2)c1 [Example 113, hydrochloride]", "6.40 to 7.30"],
  ["COc1cccc([C@@H](C)NC(C)c2cc(-c3cccc(C(C)(C)C(=O)O)c3)c3ccccc3c2)c1 (stereo partly shown) [Example 139, hydrochloride]", "6.40 to 7.30"],
  ["COc1cccc([C@@H](C)NC(C)c2cc(-c3ccc(OC(F)(F)F)cc3)c3ccccc3c2)c1 (stereo partly shown) [Example 19, hydrochloride]", "> 7.70"]
]}

May I ask what pEC50 has been recorded for CC(N[C@H](C)c1cccc(Cl)c1)c1cc(-c2ccc(S(C)(=O)=O)cc2)c2ccccc2c1 (stereo partly shown) [Example 159, hydrochloride] ?
6.40 to 7.30

May I ask what pEC50 has been recorded for COc1cc([C@@H](C)NCc2cc(-c3ccc(F)c(C(=O)O)c3)c3ccccc3c2)ccc1F [Example 96, hydrochloride] ?
6.40 to 7.30

May I ask what pEC50 has been recorded for COc1cc([C@@H](C)NCc2cc(-c3ccc(C(=O)O)cc3)c3ccccc3c2)ccc1F [Example 107, hydrochloride] ?
7.30 to 7.70

May I ask what pEC50 has been recorded for COc1cccc([C@@H](C)NCc2cc(-c3ccc(C)c(C(=O)O)c3C)c3ccccc3c2)c1 [Example 109, hydrochloride] ?
6.40 to 7.30

May I ask what pEC50 has been recorded for CC(N[C@H](C)c1cccc(Cl)c1)c1cc(-c2ccc(OC(F)F)cc2)c2ccccc2c1 (stereo partly shown) [Example 22, hydrochloride] ?
> 7.70

May I ask what pEC50 has been recorded for COc1cccc([C@@H](C)NC(C)c2cc(-c3ccc(C(F)(F)C(=O)O)cc3)c3ccccc3c2)c1 (stereo partly shown) [Example 135, acetic acid hydrochloride] ?
> 7.70

May I ask what pEC50 has been recorded for COc1ccc(-c2cc(C(C)N[C@H](C)c3cccc(Cl)c3)cc3ccccc23)cc1F (stereo partly shown) [Example 8, hydrochloride] ?
> 7.70

May I ask what pEC50 has been recorded for C[C@@H](NCc1cc(-c2ccc(C(F)(F)F)cc2)c2ccccc2c1)c1cccc2ccccc12 [Example 1, hydrochloride] ?
> 7.70

Each recorded value in this set is attributed to patent US9493396B2.
